- Target of assay: furin, P09958;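 note: purified furin at 1:10 enzyme:substrate in 50 mM HEPES pH 7.5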
- Sequence (P09958 whole entry): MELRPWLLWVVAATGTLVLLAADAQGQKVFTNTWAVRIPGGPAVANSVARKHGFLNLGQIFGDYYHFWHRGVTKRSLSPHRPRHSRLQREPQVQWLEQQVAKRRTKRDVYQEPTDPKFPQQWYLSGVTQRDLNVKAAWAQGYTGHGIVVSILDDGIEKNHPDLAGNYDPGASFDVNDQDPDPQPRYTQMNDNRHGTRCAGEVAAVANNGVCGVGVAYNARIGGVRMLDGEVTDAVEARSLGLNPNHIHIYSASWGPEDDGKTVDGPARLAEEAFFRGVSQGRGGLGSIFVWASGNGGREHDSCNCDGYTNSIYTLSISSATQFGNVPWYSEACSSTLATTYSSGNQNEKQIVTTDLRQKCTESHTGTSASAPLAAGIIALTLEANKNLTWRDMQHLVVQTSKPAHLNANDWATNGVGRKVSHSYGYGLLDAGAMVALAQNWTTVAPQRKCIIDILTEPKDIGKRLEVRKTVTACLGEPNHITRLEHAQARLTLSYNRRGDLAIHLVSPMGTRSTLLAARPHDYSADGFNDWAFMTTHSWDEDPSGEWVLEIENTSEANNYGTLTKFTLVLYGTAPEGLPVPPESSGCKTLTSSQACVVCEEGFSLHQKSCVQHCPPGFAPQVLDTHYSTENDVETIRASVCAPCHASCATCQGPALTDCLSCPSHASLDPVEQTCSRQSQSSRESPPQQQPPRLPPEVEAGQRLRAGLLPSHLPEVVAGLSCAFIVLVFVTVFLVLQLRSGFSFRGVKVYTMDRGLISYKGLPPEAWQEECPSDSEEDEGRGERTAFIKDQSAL
- Protocol notes: furin cleavage Z-score vs untreated control; higher = more cleavage, active = 3.5 or more, inactive = 1 or less, 8 variable residues between constant flanks
- Experimental conditions: 7.5 min
This is one part of the list. The hit rate among all sequences tested is not known here.
Note: every record was labeled by where its furin cleavage Z-score sits among interval 1 (below 0.8), interval 2 (0.8 to below 8), interval 3 (8 or more)

Use the examples below as a reference point.
Record sequence	Assigned label
CAHPVREARAAGNASASA [FS-1211]	interval 2
CARRRRERRDAGNASASA [FS-1268]	interval 3

Into which bin does this sequence go? CASMPRERRDAGNASASA [FS-92]
interval 3

Similarly, CAERSRVCRCAGNASASA [FS-123] ?
interval 1

Then this sequence: CASHITAEAAAGNASASA [HC1250]
interval 1

Now consider CARKSRPNASAGNASASA [FS-2981] and answer again.
interval 2

Another sequence: CARRRRSGADAGNASASA [FS-2081]
interval 2

Ok, now CARKSRSPHNAGNASASA [FS-3224]
interval 2

Now the same for CAHPNIEEVAAGNASASA [HC840]
interval 1

Consider next the sequence CAYPPKPCGIAGNASASA [HC405] in the same way.
interval 1
